Reported pIC50 values are given for each entry in this list.
Target: Protein Tat (Human immunodeficiency virus type 1 group M subtype B (isolate PCV12)(HIV-1), UniProt P04326)
Sequence (P04326 whole entry): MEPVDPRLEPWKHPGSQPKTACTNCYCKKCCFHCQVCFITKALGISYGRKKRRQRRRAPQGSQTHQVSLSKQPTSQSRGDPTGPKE
Test: Inhibition of Tat peptide binding to HIV-1 TAR RNA
pIC50 here is simply -log10 of the concentration when that concentration is written in mol/L.

Solved entries (count: 3):
{"columns": ["molecule", "pIC50"],
 "data": [
  ["NC[C@H]1OC(O[C@H]2[C@H](O)C(O)[C@H](N)C[C@@H]2N)C(N)[C@@H](O)[C@@H]1O (single isomer, unassigned)", 4.55],
  ["N=C(N)NCCCC(N)C(=O)NCC1O[C@@H](OC2C(N)C[C@@H](N)[C@@H](O)[C@H]2O)[C@@H](N)[C@@H](O)C1O (some centres undefined)", 6.22],
  ["NC1C[C@@H](N)[C@@H](O)[C@@H](O)C1O[C@@H]1OC(CNC(=O)c2ccc3ccc4cccc5ccc2c3c45)C(O)[C@H](O)[C@@H]1N (some centres undefined)", 5.77]
]}

Reported pIC50 for N=C(N)NCCCC(NC(=O)c1ccc2ccc3cccc4ccc1c2c34)C(=O)NCC1OC(OC2C(N)CC(N)C(O)C2O)C(N)C(O)C1O (centres undefined) was 7.55
